Measured growth inhibition accompanies every entry in the list below.
# test protocol: NCI Yeast Anticancer Drug Screen. Data for the sgs1 mgt1 strain (AID 161);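 further: 0% = growth of cultures given vehicle only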
# settings: S. cerevisiae sgs1 mgt1 strain, at 50.0 µM, stronger effect = higher value
This is part of a sample that, as a whole, favours compounds with a hit. Of some 79,000 tested, about 15% had one in any assay. Calls of active or inactive are those of the source. No stated cut-off is given here; in the data, active means growth inhibition above about 70%; inactive means the rest.
assay endpoint: growth inhibition

[[record]]
chemical_smiles = "O=C(NCCCBr)Nc1cccc2c1CCCC2"
assay_endpoint = "growth inhibition"
result = "2.5% (inactive)"

[[record]]
chemical_smiles = "Cc1cccc(NCN2C(=O)c3ccccc3C2=O)c1"
assay_endpoint = "growth inhibition"
result = "3.8% (inactive)"

[[record]]
chemical_smiles = "CN1CC(=O)N(CO)/C1=N\\CO"
assay_endpoint = "growth inhibition"
result = "-6.85% (inactive)"

[[record]]
chemical_smiles = "O=S(O)OS(=O)O"
assay_endpoint = "growth inhibition"
result = "-15.6% (inactive)"

[[record]]
chemical_smiles = "S=C1SCN(c2ccc3c(c2)OCO3)CN1c1ccc2c(c1)OCO2"
assay_endpoint = "growth inhibition"
result = "20.9% (inactive)"

[[record]]
chemical_smiles = "CC(=O)Oc1cc(C(C)C)ccc1C"
assay_endpoint = "growth inhibition"
result = "18.1% (inactive)"

[[record]]
chemical_smiles = "CSc1nc(-c2ccccc2)c2c(n1)-c1ccccc1CC2"
assay_endpoint = "growth inhibition"
result = "3.05% (inactive)"

[[record]]
chemical_smiles = "CC1=CC(=O)N2CCN=C2S1"
assay_endpoint = "growth inhibition"
result = "1.65% (inactive)"

